Assay: growth inhibition of non-replicating M. tuberculosis (AID 488890);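 further: plate controls were DMSO cells for no effect and high antibiotic wells for full effect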
Conditions: Mycobacterium tuberculosis non-replicating, at 25 µM, stronger effect = higher value
The whole screen tested about 320,000 compounds, of which about 1,300 (0.41%) were called active. About 3% were inconclusive and are not listed. The list is a sample of the results. Potency and affinity values are given separately.
Consider the following molecules; for each one, report its inhibition.
Return type: number; implicit unit %.

Data request: Sample COCCn1nnnc1CN1CCN(C(=O)c2ccco2)CC1 — what was its inhibition?
Data returned: -9.84

Data request: Sample Cc1nnc(NC(=O)c2cc3ccccc3o2)s1 — what was its inhibition?
Data returned: 16.8

Data request: Sample COc1ccc(OC)c(C2Nc3ccccc3NC3=C2C(=O)CC(C)(C)C3)c1 (stereo unspecified) — what was its inhibition?
Data returned: 3.61

Data request: Sample CC1(C)CC(=O)C(C=NCCN2CCN(C(=O)CCl)CC2)=C(O)C1 — what was its inhibition?
Data returned: 28.9

Data request: Sample CCCc1nc(SCC(=O)NC2CC2)c2c(C)c(C)sc2n1 — what was its inhibition?
Data returned: 6

Data request: Sample COc1ccc2cc(CN(Cc3cccs3)Cc3nnnn3Cc3ccccc3)c(=O)[nH]c2c1 — what was its inhibition?
Data returned: 27.5

Data request: Sample O=[N+]([O-])c1cccc(/C=N\N2CCN(Cc3ccccc3Cl)CC2)c1 — what was its inhibition?
Data returned: -2.97

Data request: Sample NC(=O)c1ccc(NC(=O)CN2CCOCC2)cc1 — what was its inhibition?
Data returned: -9.52

Data request: Sample COc1ccc(NC(=O)C2CCCN(C(=O)c3ccc(Cl)cc3)C2)cc1Cl (stereo unspecified) — what was its inhibition?
Data returned: 5.35

Data request: Sample CCOC(=O)c1cn(CC)c2cc(N3CCN(C)CC3)c(F)cc2c1=O — what was its inhibition?
Data returned: -0.72

Data request: Sample COC(=O)c1c(C)[nH]c(C(=O)CSc2nnnn2-c2ccccc2)c1C — what was its inhibition?
Data returned: -4

====

Assay: growth inhibition of non-replicating M. tuberculosis (AID 488890);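 further: plate controls were DMSO cells for no effect and high antibiotic wells for full effect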
Conditions: Mycobacterium tuberculosis non-replicating, at 25 µM, stronger effect = higher value
Hit rate of the full screen: of about 320,000 compounds, about 1,300 (0.41%) were called active. Not shown: some 3% with an inconclusive outcome. The list is a sample of the results. Entries with a potency or affinity are not part of this list.
Consider the following compounds; for each one, report its inhibition.
Return type: number; implicit unit %.

Data request: Sample CCOc1ccc(C(=O)N/N=C/c2cc([N+](=O)[O-])cs2)cc1 — what was its inhibition?
Data returned: 69.5

Data request: Sample COc1ccc(OC(=O)c2cn(C)nc2C(F)(F)F)cc1 — what was its inhibition?
Data returned: 12.6

Data request: Sample Cc1[nH][nH]c(=O)c1N=Nc1ccccc1Cl — what was its inhibition?
Data returned: 2.18

Data request: Sample Cc1cc(NC(=O)CCC(=O)N(CC(=O)NCC2CCCO2)c2ccc(C)c(C)c2)no1 (centres undefined) — what was its inhibition?
Data returned: -4.55

Data request: Sample Brc1ccc(/C=N/Nc2nc3ccccc3o2)cc1 — what was its inhibition?
Data returned: 0.82

Data request: Sample O=c1cc(-c2ccccc2Cl)oc2c(Br)ccc(O)c12 — what was its inhibition?
Data returned: -2.73

Data request: Sample Cc1cc(C)cc(N(CCC#N)C(=O)CSc2ncnc3sccc23)c1 — what was its inhibition?
Data returned: 7.69

Data request: Sample CC(=O)Oc1ccc(C(=O)Nc2cccc(C(=O)NC(C)(C)C)c2)cc1 — what was its inhibition?
Data returned: 7.66

Data request: Sample O=C(NNC(=O)c1ccc(Br)cc1)c1ccncc1 — what was its inhibition?
Data returned: 41.7

Data request: Sample Cc1[nH]c2ccccc2c1C(=O)NS(=O)(=O)Nc1ccc(F)cc1 — what was its inhibition?
Data returned: -2.71

Data request: Sample CCN(C(=O)COC(=O)c1cc2ccccc2cc1O)C1CCS(=O)(=O)C1 (centres undefined) — what was its inhibition?
Data returned: 9.53

Data request: Sample Oc1ccc(Br)cc1/C=N/Nc1ncc(-c2ccccc2)cn1 — what was its inhibition?
Data returned: 1.56

Data request: Sample O=C(O)c1cccc2c1C(=O)c1ccc(-c3ccc(OC(F)(F)F)cc3)cc1S2(=O)=O — what was its inhibition?
Data returned: -2.64

Data request: Sample CCOC(=O)c1cccc(COC(=O)c2cccc(-c3nnc(-c4ccccc4)o3)c2)c1 — what was its inhibition?
Data returned: 18.4

Data request: Sample Cc1ccccc1CN1C(=O)/C(=C\c2ccc(C(=O)NCCN3CCOCC3)cc2)Sc2ccccc21 — what was its inhibition?
Data returned: 34.3

Data request: Sample Cc1onc(-c2ccccc2)c1C(=O)OCc1nnc(-c2ccc([N+](=O)[O-])cc2)o1 — what was its inhibition?
Data returned: 48

Data request: Sample Cc1ccc(S(=O)(=O)CCc2nnc(N)s2)cc1C — what was its inhibition?
Data returned: 4.5

Data request: Sample O=C(NNC(=O)C1CCC1)c1ccc(Br)cc1 — what was its inhibition?
Data returned: 3.14

Data request: Sample Cc1ccccc1NCc1nc2ccccc2n1C — what was its inhibition?
Data returned: 34.2

Data request: Sample Cc1ccc(N(CC(=O)Nc2c(C)n(C)n(-c3ccccc3)c2=O)S(C)(=O)=O)c(C)c1 — what was its inhibition?
Data returned: -0.1

Data request: Sample O=C1N(CCCCN2C(=O)C3(OCCO3)c3ccccc32)c2ccccc2C12OCCO2 — what was its inhibition?
Data returned: 5.68

Data request: Sample CCn1c(SCC(=O)Nc2cc(Cl)ccc2OC)nnc1C1CC1 — what was its inhibition?
Data returned: 1.4

Data request: Sample CCOC(=O)c1ccc(Cn2c(-c3ccccc3)nnc2-c2ccccc2)o1 — what was its inhibition?
Data returned: 11.2

Data request: Sample O=c1cc(-c2ccccc2Cl)oc2cccc(O)c12 — what was its inhibition?
Data returned: -8.34

Data request: Sample NS(=O)(=O)c1ccc(OC(=O)CNC(=O)OCc2ccccc2)cc1 — what was its inhibition?
Data returned: 6.9

Data request: Sample CC(=O)N1CCN(C(=O)c2ccc(-c3ccccc3Cl)o2)CC1 — what was its inhibition?
Data returned: 5.06

Data request: Sample Nc1ccccc1C(=O)c1ccccc1 — what was its inhibition?
Data returned: -8.33

Data request: Sample CCOC(=O)Nc1nc2ccccc2s1 — what was its inhibition?
Data returned: -2.43

Data request: Sample COc1cccc(C2C(C(=O)OC(C)C)=C(C)N=c3s/c(=C\c4ccc(C(=O)O)cc4)c(=O)n32)c1 (centres undefined) — what was its inhibition?
Data returned: -6.22

Data request: Sample COc1ccc(C(=O)C2CCCN(Cc3ccccn3)C2)c(OC)c1 (centres undefined) — what was its inhibition?
Data returned: 21.8

Data request: Sample OC(CCc1cccc(Cl)c1)c1cccs1 (centres undefined) — what was its inhibition?
Data returned: 75.1

Data request: Sample Cc1[nH]n(S(=O)(=O)c2ccccc2)c(=O)c1N=Nc1cccc(Cl)c1 — what was its inhibition?
Data returned: 70.6

Data request: Sample OCc1ccc(O)c2ncccc12 — what was its inhibition?
Data returned: 26

Data request: Sample O=C(NC1CCCCC1)C(c1cccs1)N(C(=O)C(F)(F)F)c1ccccc1 (centres undefined) — what was its inhibition?
Data returned: 14.2
